assay_system: Indoleamine 2,3-dioxygenase 1 (Homo sapiens)
experiment_description: Inhibition of IDO1 (unknown origin) assessed as reduction in N'-formlylkynurenine formation at 1 uM using D-Tryptophan as substrate in presence of ascorbate and methylene blue relative to control
Sequence (P14902 whole entry, looked up): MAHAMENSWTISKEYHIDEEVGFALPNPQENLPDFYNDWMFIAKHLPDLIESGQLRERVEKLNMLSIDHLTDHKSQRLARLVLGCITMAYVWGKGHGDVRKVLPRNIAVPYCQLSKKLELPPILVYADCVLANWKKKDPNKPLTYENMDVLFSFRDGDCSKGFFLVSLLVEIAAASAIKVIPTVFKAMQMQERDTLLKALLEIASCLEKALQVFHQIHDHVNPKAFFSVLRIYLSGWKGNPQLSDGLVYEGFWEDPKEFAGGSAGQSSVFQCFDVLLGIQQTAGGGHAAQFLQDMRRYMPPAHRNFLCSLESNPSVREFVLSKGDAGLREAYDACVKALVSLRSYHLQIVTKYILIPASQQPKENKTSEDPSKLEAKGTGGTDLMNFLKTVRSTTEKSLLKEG
property: inhibition (%)

                                 smiles_str  uom  numeric_value
0  O=C1c2cccnc2C(=O)c2c1c(Cc1ccccc1)c1ccccn21    %             34

I. COc1ccn2c3c(c(C(=O)O)c2c1)C(=O)c1cccnc1C3=O
II. O=C1c2ncccc2C(=O)c2c1c(C(=O)Nc1cccc(Cl)c1)c1ccccn21
III. CC(C)OC(=O)c1c2c(n3ccccc13)C(=O)c1ccccc1C2=O
### Prompt Could you please sort these 3 entries by inhibition from high to low? API: response body holds the labels in the requested order.
### Response I, II, III
(I: 69%, II: 34%, III: 13%)

a. O=C1c2ncccc2C(=O)c2c1c(C(=O)Nc1ccccc1)c1ccccn21
b. CN(C)CCNC(=O)c1c2c(n3ccccc13)C(=O)c1cccc(O)c1C2=O
### Prompt Of a versus b , which is the one with smaller reported inhibition? Please reply using the label of the selected record.
### Response b

1. COC(=O)c1c2c(n3ccccc13)C(=O)c1ncccc1C2=O
2. CN(C)CCCNC(=O)c1c2c(n3ccccc13)C(=O)c1ccccc1C2=O
3. CCOC(=O)c1c2c(n3ccccc13)C(=O)c1ncccc1C2=O
### Prompt Please list these compounds in decreasing order of inhibition. Arrange the labels as the request states and list them.
### Response 1, 3, 2

* * *

assay_system: UniProt:P14902
experiment_description: Inhibition of IDO1 (unknown origin) assessed as reduction in N'-formlylkynurenine formation using D-Tryptophan as substrate in presence of ascorbate and methylene blue
measurement_context: in the assay text read “ascorbate” for “aspartate”
Sequence (P14902 whole entry): as the sequence (P14902 whole entry, looked up) above
pIC50: −log10 of the molar value.
property: pIC50

>>> print(df.to_string())
                                 smiles_str    assay_system  numeric_value
0  O=C1c2ncccc2C(=O)c2c1c(C(=O)O)c1cc(I)ccn21  UniProt:P14902           6.38

a. O=C(O)c1cccc(NC(=O)c2c3c(n4ccccc24)C(=O)c2cccnc2C3=O)c1
b. CN(C)CCNC(=O)c1c2c(n3ccccc13)C(=O)c1ncccc1C2=O
### Prompt In the pair a and b , the larger recorded pIC50 belongs to which? # respond with the chosen item's label
### Response b
(b: 6.90, a: 6.41)

* * *

assay_system: UniProt:P14902
experiment_description: Inhibition of IDO1 (unknown origin) assessed as reduction in N'-formlylkynurenine formation at 1 uM using D-Tryptophan as substrate in presence of ascorbate and methylene blue relative to control
property: inhibition (%)

P. O=C(O)c1cccc(NC(=O)c2c3c(n4ccccc24)C(=O)c2ncccc2C3=O)c1
Q. O=C1c2cccnc2C(=O)c2c1c(C(=O)Nc1cccc(Cl)c1)c1ccccn21
R. O=C1c2ccccc2C(=O)c2c1c(C(=O)NCCCO)c1ccccn21
### Prompt Sort low-to-high on inhibition, please. I would appreciate it if you listed the labels in the requested order.
### Response R, Q, P
(R: 15%, Q: 29.5%, P: 74.5%)

P. COC(=O)c1c2c(n3ccccc13)C(=O)c1cccnc1C2=O
Q. O=C1c2ccccc2C(=O)c2c1c(C(=O)NCCO)c1ccccn21
### Prompt Please indicate which item has the smaller measured inhibition: P versus Q Please reply using the label of the selected record.
### Response Q

* * *

assay_system: Indoleamine 2,3-dioxygenase 1 (Homo sapiens)
experiment_description: Inhibition of IFN-gamma-stimulated IDO1 in human HeLa cells after 24 hrs by Ehrlich's reagent based assay
Assay type: cell-based
property: IC50 (nM)

Consider the following illustrative entries.
>>> print(df.to_string())
                                 smiles_str  property  uom  numeric_value
0  NS(=O)(=O)NCCNC1=NON/C1=C(/NO)Nc1ccc(F)c(Br)c1      IC50   nM              7
1  CSc1ccn2c3c(c(C(=O)NCCN(C)C)c2c1)C(=O)c1cccnc1C3=O      IC50   nM           1080

1. CN(C)CCNC(=O)c1c2c(n3ccccc13)C(=O)c1ncccc1C2=O
2. CN(C)CCNC(=O)c1c2c(n3ccccc13)C(=O)c1cccnc1C2=O
### Prompt Please compare: 1 and 2 . Report which one has the smaller IC50 value. Could you answer with the label of the item you picked?
### Response 1
(1: 738 nM, 2: 1240 nM)

I. Cc1ccccc1NC(=O)c1c2c(n3ccccc13)C(=O)c1cccnc1C2=O
II. CSc1ccn2c3c(c(C(=O)NCCN(C)C)c2c1)C(=O)c1ncccc1C3=O
### Prompt Hey, between I and II which has a smaller measured IC50? Choose, then provide that item's label.
### Response II

* * *

assay_system: Tryptophan 2,3-dioxygenase (Homo sapiens)
Sequence (P48775 whole entry, looked up): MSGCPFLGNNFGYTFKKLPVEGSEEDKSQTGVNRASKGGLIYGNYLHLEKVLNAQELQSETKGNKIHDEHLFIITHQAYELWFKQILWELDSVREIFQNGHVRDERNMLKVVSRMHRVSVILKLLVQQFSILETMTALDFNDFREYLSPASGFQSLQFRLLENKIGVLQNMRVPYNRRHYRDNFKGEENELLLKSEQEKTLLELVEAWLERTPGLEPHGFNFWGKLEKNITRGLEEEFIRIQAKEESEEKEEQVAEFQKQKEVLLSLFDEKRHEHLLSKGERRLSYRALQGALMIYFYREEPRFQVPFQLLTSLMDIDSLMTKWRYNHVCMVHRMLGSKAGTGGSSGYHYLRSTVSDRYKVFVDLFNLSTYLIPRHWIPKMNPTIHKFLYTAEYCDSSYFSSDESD
experiment_description: Inhibition of recombinant TDO (unknown origin) assessed as reduction in N-formylkynurenine formation at 10 uM using L-Tryptophan as substrate after 75 mins by UV absorption method relative to control
property: inhibition (%)

I. COC(=O)c1c2c(n3ccccc13)C(=O)c1ccccc1C2=O
II. CCOC(=O)c1c2c(n3ccccc13)C(=O)c1cccnc1C2=O
III. CN(C)CCNC(=O)c1c2c(n3ccccc13)C(=O)c1ncccc1C2=O
IV. O=C1c2cccnc2C(=O)c2c1c(C(=O)O)c1ccccn21
### Prompt Parameters: sort_field (inhibition), sort_dir (desc). Response format: the labels, sorted as the prompt asks.
### Response III, I, IV, II
(III: 91%, I: 40%, IV: 28%, II: 14%)

* * *

assay_system: Indoleamine 2,3-dioxygenase 1 (Homo sapiens, UniProt P14902)
experiment_description: Inhibition of IDO1 (unknown origin) assessed as reduction in N'-formlylkynurenine formation using D-Tryptophan as substrate in presence of ascorbate and methylene blue
measurement_context: in the assay text read “ascorbate” for “aspartate”
property: IC50 (nM)

Some solved cases for reference:
>>> df
                                 smiles_str  numeric_value
0   O=C1c2ncccc2C(=O)c2c1c(C(=O)O)c1ccccn21           1190
1  NS(=O)(=O)NCCNC1=NON/C1=C(/NO)Nc1ccc(F)c(Br)c1             73
2  CN(C)CCNC(=O)c1c2c(n3ccccc13)C(=O)c1cccnc1C2=O            188
3  COC(=O)c1c2c(n3ccccc13)C(=O)c1cccc(O)c1C2=O             87
4  O=C1c2cccnc2C(=O)c2c1c(C(=O)Nc1ccccc1)c1ccccn21            361

1. O=C(O)c1cccc(NC(=O)c2c3c(n4ccccc24)C(=O)c2ncccc2C3=O)c1
2. CSc1ccn2c3c(c(C(=O)NCCN(C)C)c2c1)C(=O)c1ncccc1C3=O
### Prompt 1 or 2 : whose IC50 is greater? Indicate which entry you chose by stating its label.
### Response 1
(1: 148 nM, 2: 39 nM)

I. O=C1c2ncccc2C(=O)c2c1c(C(=O)Nc1ccccc1)c1ccccn21
II. Cc1ccccc1NC(=O)c1c2c(n3ccccc13)C(=O)c1ncccc1C2=O
III. NC(=S)NNC(=O)c1c2c(n3ccccc13)C(=O)c1ncccc1C2=O
### Prompt Kindly order the items shown according to IC50, from the highest value down. Your task in answering is to list the labels in the requested order.
### Response II, I, III

* * *

Test system: MCF7
experiment_description: Cytotoxicity against human MCF7 cells after 48 hrs by MTT assay
Assay type: functional, cell-based
measurement_context: MCF7, 48 h
pIC50: −log10 of the molar value.
property: pIC50

### Prompt For the compound NC(=S)NNC(=O)c1c2c(n3ccccc13)C(=O)c1ncccc1C2=O , give its reported pIC50.
### Response < 4.70

* * *

assay_system: Indoleamine 2,3-dioxygenase 1 (Homo sapiens, UniProt P14902)
experiment_description: Inhibition of IDO1 (unknown origin) assessed as reduction in N'-formlylkynurenine formation at 1 uM using D-Tryptophan as substrate in presence of ascorbate and methylene blue relative to control
property: inhibition (%)

>>> df
                                 smiles_str  uom  numeric_value
0  CSc1ccn2c3c(c(C(=O)NCCN(C)C)c2c1)C(=O)c1ncccc1C3=O    %           80.5
1  COc1ccn2c3c(c(C(=O)O)c2c1)C(=O)c1ncccc1C3=O    %             47
2  Cc1ccccc1NC(=O)c1c2c(n3ccccc13)C(=O)c1ncccc1C2=O    %             74
3  Cc1ccn2c3c(c(C(=O)O)c2c1)C(=O)c1cccnc1C3=O    %             70
4  CCOC(=O)c1c2c(n3ccccc13)C(=O)c1ccccc1C2=O    %             68
5   O=C1c2ncccc2C(=O)c2c1c(C(=O)O)c1ccccn21    %             58

This collection of values is drawn from ChEMBL document CHEMBL4229555.
